Kindly supply the reported BASOPHIL values for the records listed here.
species on record: Rattus norvegicus; assay: DrugMatrix - Regimen: Daily Repeat; format: toxicity, organism-based, Sprague-Dawley; design: regimen Daily Repeat, gender Male, age 6-8 weeks; settings: in vivo, po, 1500 mg/kg, 72 h, tissue Blood, route oral GAVAGE, dose level High, time 3 day, vehicle .5 % CMC
Write the answer as a number in %, unit excluded.

# BASOPHIL of Nc1nc2c(c(=O)[nH]1)N(C=O)C(CNc1ccc(C(=O)N[C@@H](CCC(=O)O)C(=O)O)cc1)CN2 (stereo not given in full) = 0

Notebook: `CCOC(=O)[C@H](CCc1ccccc1)N[C@@H](C)C(=O)N1CCC[C@H]1C(=O)O` , BASOPHIL read as 0

The reported value for `O=c1cc(-c2ccccc2)oc2ccc3ccccc3c12` in terms of BASOPHIL is 0.4

# BASOPHIL (compound: `C[C@@H](O)[C@H]1C(=O)N2C(C(=O)O)=C(S[C@@H]3CN[C@H](C(=O)N(C)C)C3)[C@H](C)[C@H]12` ) is 0

Reported BASOPHIL of `CC(C)(Sc1cc(C(C)(C)C)c(O)c(C(C)(C)C)c1)Sc1cc(C(C)(C)C)c(O)c(C(C)(C)C)c1` : 0

* * *

species on record: Rattus norvegicus; assay: DrugMatrix - Regimen: Daily Repeat; format: toxicity, organism-based, Sprague-Dawley; design: regimen Daily Repeat, gender Male, age 6-8 weeks; conditions: in vivo, po, 0 mg/kg, 120 h, tissue Blood, route oral GAVAGE, dose level Control, time 5 day, vehicle 100 % WATER
Field: MEAN CORPUSCULAR HEMOGLOBIN. Provide a value for each of the compounds that follow.
Express it in pg; write the number only.

Noted for O=P1(N(CCCl)CCCl)NCCCO1 (centres undefined) [CYCLOPHOSPHAMIDE ANHYDROUS] : its MEAN CORPUSCULAR HEMOGLOBIN reads 24.82

Lookup result for `CNS(=O)(=O)Cc1ccc2[nH]cc(CCN(C)C)c2c1` ; measured MEAN CORPUSCULAR HEMOGLOBIN: 24.3

The reported value for CC[C@H]1OC(=O)[C@H](C)[C@@H](O[C@H]2C[C@@](C)(OC)[C@@H](O)[C@H](C)O2)[C@H](C)[C@@H](O[C@@H]2O[C@H](C)C[C@H](N(C)C)[C@H]2O)[C@](C)(OC)C[C@@H](C)C(=O)[C@H](C)[C@@H](O)[C@]1(C)O [CLARITHROMYCIN] in terms of MEAN CORPUSCULAR HEMOGLOBIN is 25.2

The reported value for Nc1ccc(S(=O)(=O)Nc2ncccn2)cc1 [SULFADIAZINE] in terms of MEAN CORPUSCULAR HEMOGLOBIN is 23.92

* * *

species: Rattus norvegicus; assay: DrugMatrix - Regimen: Daily Repeat; type: toxicity, organism-based, Sprague-Dawley; set-up: regimen Daily Repeat, gender Male, age 6-8 weeks; details: in vivo, po, 0 mg/kg, 120 h, tissue Blood, route oral GAVAGE, dose level Control, time 5 day, vehicle 100 % WATER
quantity: ABSOLUTE MONOCYTE (CELLS/uL)
Supply the numeric figure in CELLS/uL, leaving out any unit text.

GET /value?item= `CCCc1nn(C)c2c(=O)[nH]c(-c3cc(S(=O)(=O)N4CCN(C)CC4)ccc3OCC)nc12` &field=ABSOLUTE MONOCYTE returns 15.83

Lab book: ABSOLUTE MONOCYTE of `CC(C)(C)NC[C@H](O)COc1nsnc1N1CCOCC1` noted as 69.67

For reference, reported ABSOLUTE MONOCYTE for `OCCO` stands at 15.83

Just so you know, measured ABSOLUTE MONOCYTE for O=P1(N(CCCl)CCCl)NCCCO1 (stereo not given) [CYCLOPHOSPHAMIDE ANHYDROUS] came out at 58.33

// sample CN1C2CCCC1CC(NC(=O)c1nn(C)c3ccccc13)C2 (stereo not given) , its ABSOLUTE MONOCYTE was 69.67

* * *

species on record: Rattus norvegicus; experiment: DrugMatrix - Regimen: Daily Repeat; format: toxicity, organism-based, Sprague-Dawley; parameters: regimen Daily Repeat, gender Male, age 6-8 weeks; conditions: in vivo, po, 0 mg/kg, 120 h, tissue Blood, route oral GAVAGE, dose level Control, time 5 day, vehicle 100 % WATER
quantity: NUCLEATED RED BLOOD CELLS

Form field NUCLEATED RED BLOOD CELLS, entry O=C(O)c1cccnc1 [NIACIN] : 0.17 /100WBC

Entry under test: CC[C@H]1OC(=O)[C@H](C)[C@@H](O[C@H]2C[C@@](C)(OC)[C@@H](O)[C@H](C)O2)[C@H](C)[C@@H](O[C@@H]2O[C@H](C)C[C@H](N(C)C)[C@H]2O)[C@](C)(O)C[C@@H](C)CN(C)[C@H](C)[C@@H](O)[C@]1(C)O [AZITHROMYCIN] . Its NUCLEATED RED BLOOD CELLS was 0.33 /100WBC

What the record says about Cc1c(N(C)CS(=O)(=O)[O-])c(=O)n(-c2ccccc2)n1C.[Na+] [DIPYRONE SODIUM] : NUCLEATED RED BLOOD CELLS is 0 /100WBC

In plain terms, `CCCc1nn(C)c2c(=O)[nH]c(-c3cc(S(=O)(=O)N4CCN(C)CC4)ccc3OCC)nc12` has a documented NUCLEATED RED BLOOD CELLS of 0.17 /100WBC

The compound listed as O=P1(N(CCCl)CCCl)NCCCO1 (stereo not drawn) [CYCLOPHOSPHAMIDE ANHYDROUS] shows NUCLEATED RED BLOOD CELLS equal to 0 /100WBC

Notebook: CN1C2CCCC1CC(NC(=O)c1nn(C)c3ccccc13)C2 (stereo not drawn) [GRANISETRON] , NUCLEATED RED BLOOD CELLS read as 0 /100WBC

NUCLEATED RED BLOOD CELLS in this record for `CNS(=O)(=O)Cc1ccc2[nH]cc(CCN(C)C)c2c1` : 0 /100WBC

NUCLEATED RED BLOOD CELLS reported for this compound `CCCCCCCCCCCCCCCC[n+]1ccccc1.[Br-]` : 0 /100WBC

* * *

species on record: Rattus norvegicus; assay: DrugMatrix - Regimen: Daily Repeat; type: toxicity, organism-based, Sprague-Dawley; set-up: regimen Daily Repeat, gender Male, age 6-8 weeks; details: in vivo, po, 0 mg/kg, 72 h, tissue Plasma, route oral GAVAGE, dose level Control, time 3 day, […]
quantity: CARBON DIOXIDE (mmol/L)
// note: answer is a bare numeric in mmol/L

Form: compound = `CC[C@H](C)C(=O)O[C@H]1C[C@H](O)C=C2C=C[C@H](C)[C@H](CC[C@@H](O)C[C@@H](O)CC(=O)O)[C@H]21` ; CARBON DIOXIDE = 30

Lab note: CC(CCc1ccc(O)cc1)NCCc1ccc(O)c(O)c1 (stereo not drawn) gave CARBON DIOXIDE of 41.67

Reported CARBON DIOXIDE of CC(=O)Nc1nnc(S(N)(=O)=O)s1 [ACETAZOLAMIDE] : 34.33

The compound identified as `COc1ncnc(NS(=O)(=O)c2ccc(N)cc2)c1OC` registered its CARBON DIOXIDE at 34.33

Entry `OCCN1CCN(CCCN2c3ccccc3Sc3ccc(C(F)(F)F)cc32)CC1` ; CARBON DIOXIDE = 33

Recorded result, `CC[C@H](C)C(=O)O[C@H]1C[C@@H](C)C=C2C=C[C@H](C)[C@H](CC[C@@H]3C[C@@H](O)CC(=O)O3)[C@H]21` , CARBON DIOXIDE: 25

`CCn1cc(C(=O)O)c(=O)c2cc(F)c(N3CCNCC3)nc21` yielded CARBON DIOXIDE of 25.5

Looking up `NC[C@@H]1O[C@H](O[C@H]2[C@@H](O)[C@H](O[C@@H]3[C@@H](O)[C@H](N)C[C@H](N)[C@H]3O[C@H]3O[C@H](CN)[C@@H](O)[C@H](O)[C@H]3N)O[C@@H]2CO)[C@H](N)[C@@H](O)[C@@H]1O` , I found its CARBON DIOXIDE recorded as 31.17

* * *

species on record: Rattus norvegicus; experiment: DrugMatrix - Regimen: Daily Repeat; type: toxicity, organism-based, Sprague-Dawley; parameters: regimen Daily Repeat, gender Male, age 6-8 weeks; conditions: in vivo, po, 0 mg/kg, 72 h, tissue Blood, route oral GAVAGE, dose level Control, time 3 day, vehicle 100 % WATER
quantity: MEAN CORPUSCULAR HEMOGLOBIN CONCENTRATION
Numeric answer plus unit only.

Notebook: Nc1ccc(S(=O)(=O)Nc2ncccn2)cc1 [SULFADIAZINE] , MEAN CORPUSCULAR HEMOGLOBIN CONCENTRATION read as 40.28 G/DL

# MEAN CORPUSCULAR HEMOGLOBIN CONCENTRATION of Nc1ccc(S(=O)(=O)Nc2nccs2)cc1 [SULFATHIAZOLE] = 38.63 G/DL

Form field MEAN CORPUSCULAR HEMOGLOBIN CONCENTRATION, entry Cc1c(N(C)CS(=O)(=O)[O-])c(=O)n(-c2ccccc2)n1C.[Na+] [DIPYRONE SODIUM] : 36.88 G/DL

The reported value for CC(C)(C)NC[C@H](O)COc1nsnc1N1CCOCC1 [TIMOLOL] in terms of MEAN CORPUSCULAR HEMOGLOBIN CONCENTRATION is 38.63 G/DL

The reported MEAN CORPUSCULAR HEMOGLOBIN CONCENTRATION of the molecule OCCO [ETHYLENE GLYCOL] was 39.03 G/DL

Sample CCN[C@@H](C)Cc1cccc(C(F)(F)F)c1 [DEXFENFLURAMINE] ; MEAN CORPUSCULAR HEMOGLOBIN CONCENTRATION observed: 40.28 G/DL

// sample CC[C@H]1OC(=O)[C@H](C)[C@@H](O[C@H]2C[C@@](C)(OC)[C@@H](O)[C@H](C)O2)[C@H](C)[C@@H](O[C@@H]2O[C@H](C)C[C@H](N(C)C)[C@H]2O)[C@](C)(O)C[C@@H](C)CN(C)[C@H](C)[C@@H](O)[C@]1(C)O [AZITHROMYCIN] , its MEAN CORPUSCULAR HEMOGLOBIN CONCENTRATION was 39.35 G/DL

Measured MEAN CORPUSCULAR HEMOGLOBIN CONCENTRATION, CCN(CC)CC#CCOC(=O)C(O)(c1ccccc1)C1CCCCC1 (stereo not drawn) [OXYBUTYNIN] : 38.55 G/DL

Value source: ChEMBL document CHEMBL3885881
